B1: NETO1 (parent)
chain: KTSLLDQLTNTSGTVIGVTSCIVI

variants of: B1; experiment: protein stability index of a GFP-peptide fusion (GPS, HEK-293T) (PSI 1-6); higher = more stable; settings: c terminus: a fixed tail appended;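 note: lentivirally expressed fusions sorted by FACS into six bins by GFP to DsRed ratio, PSI derived from sequencing read proportions per bin multiplied by bin number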
Values of protein stability index greater than or equal to 3 map to criterion met; values below map to criterion not met.

input: Entry `I24A` : is its protein stability index no less than 3?
output: criterion not met

input: Is protein stability index for `K1R` at or above 3?
output: criterion not met

input: // inclusive: protein stability index at least 3? input: `S12Y`
output: criterion met

input: hey, is protein stability index for this one >= 3? `Q7D`
output: criterion met

input: Dear colleague, could you confirm whether `G13D` has protein stability index at or above 3?
output: criterion not met

input: Kindly determine if protein stability index recorded for `C21W` is above or exactly 3.
output: criterion not met

input: protein stability index >= 3 for `T14D` ?
output: criterion not met

input: Please check the record `S3I` and state if its protein stability index is at or above 3.
output: criterion met

input: Given the entry `S3M` , answer whether its protein stability index meets or surpasses 3.
output: criterion met

input: Confirm if protein stability index reported for the variant `D6C` is 3 or above.
output: criterion met

input: In plain terms: is recorded protein stability index at least 3 for `Q7M` ?
output: criterion not met

input: Quick check, protein stability index >= 3? `Q7P`
output: criterion not met

input: I'd appreciate it if you could say whether `L4R` has protein stability index at least equal to 3.
output: criterion not met

input: Threshold query (protein stability index >= 3) on `C21E`
output: criterion not met

input: Decide: is the reported value of protein stability index for `S3H` equal to or greater than 3?
output: criterion not met

input: Decide: is the reported value of protein stability index for `G13C` equal to or greater than 3?
output: criterion not met

input: Exam item: decide whether the reported protein stability index for `I22Y` is at least 3.
output: criterion not met

input: Evaluate `L4H` : protein stability index at minimum 3?
output: criterion met

input: Quick check: does `N10Q` have protein stability index greater than or equal to 3?
output: criterion not met

input: Is reported protein stability index greater than or equal to 3 here: `I22D`
output: criterion not met

input: Threshold query (protein stability index >= 3) on `V23D`
output: criterion not met

input: Please tell me: is the variant `S20Y` at or over 3 in terms of protein stability index?
output: criterion not met

input: Please check the record `T14P` and state if its protein stability index is at or above 3.
output: criterion not met

input: Check this variant for protein stability index at or above 3: `I22R`
output: criterion not met

input: Please indicate if the recorded protein stability index for `C21H` meets or exceeds 3.
output: criterion not met

input: Could you verify whether the entry `T14M` shows protein stability index of no less than 3?
output: criterion not met

input: Kindly determine if protein stability index recorded for `V15W` is above or exactly 3.
output: criterion not met

input: Does `G13K` have a reported protein stability index of at least 3?
output: criterion not met

input: API: above_or_equal(metric=protein stability index, cutoff=3) for item `S3R`
output: criterion met

input: Does the reported protein stability index for `V18N` fall at or above the 3 mark?
output: criterion met

input: Is protein stability index at least 3? Consider `I24D`
output: criterion not met

input: Check the entry `C21M` : does protein stability index equal or exceed 3?
output: criterion not met

input: Kindly determine if protein stability index recorded for `L4V` is above or exactly 3.
output: criterion met

input: Reported protein stability index reaches at least 3 for `T14L` ?
output: criterion not met

input: Test whether the variant `C21Q` records protein stability index of 3 or higher.
output: criterion met

input: Check if protein stability index >= 3 (inclusive). Item: `N10G`
output: criterion met

input: Confirm if protein stability index reported for the variant `G17D` is 3 or above.
output: criterion met

input: Does protein stability index meet or surpass 3 for `I24G` ?
output: criterion not met

input: Can `D6M` be said to have protein stability index at or above 3?
output: criterion not met

input: Reported protein stability index at or above 3? `G17N`
output: criterion met

input: For this variant, is measured protein stability index 3 or higher? `S12V`
output: criterion met

input: Has `V23P` a recorded protein stability index greater than or equal to 3?
output: criterion not met

input: Determine whether this variant has protein stability index no lower than 3: `I24M`
output: criterion not met

input: API: above_or_equal(metric=protein stability index, cutoff=3) for item `C21G`
output: criterion met

input: Dear colleague, could you confirm whether `T9I` has protein stability index at or above 3?
output: criterion not met

input: Threshold query (protein stability index >= 3) on `I22C`
output: criterion met

input: Reported protein stability index at or above 3? `V15E`
output: criterion not met

input: Hello, I need to know if `T14F` has measured protein stability index not below 3. Thanks!
output: criterion not met

input: For this variant, is measured protein stability index 3 or higher? `T9S`
output: criterion not met

input: Is reported protein stability index greater than or equal to 3 here: `L4S`
output: criterion not met

input: Answer whether protein stability index of `I22M` is greater than or equal to 3.
output: criterion met

input: Determine whether measured protein stability index meets or exceeds 3 for `T19I`
output: criterion not met

input: Record `S3C` ; criterion: protein stability index no lower than 3. Met?
output: criterion met

input: Say whether `C21L` shows protein stability index of 3 or more.
output: criterion met

input: Form field: protein stability index at least 3? Entry: `L8P`
output: criterion not met

input: # bool: protein stability index of `N10R` >= 3
output: criterion not met

input: Entry `T11Y` : is its protein stability index no less than 3?
output: criterion not met

input: Reported protein stability index at or above 3? `I16F`
output: criterion met

input: Record `D6G` ; criterion: protein stability index no lower than 3. Met?
output: criterion not met

input: Is reported protein stability index greater than or equal to 3 here: `T2P`
output: criterion met

input: Can `V23G` be said to have protein stability index at or above 3?
output: criterion not met

input: Answer whether protein stability index of `Q7G` is greater than or equal to 3.
output: criterion met

input: I'd appreciate it if you could say whether `I24C` has protein stability index at least equal to 3.
output: criterion not met

input: Check if protein stability index >= 3 (inclusive). Item: `G13S`
output: criterion met

input: Quick check: does `I22F` have protein stability index greater than or equal to 3?
output: criterion not met

input: Would you say `L8I` shows protein stability index at minimum 3?
output: criterion met

input: Kindly determine if protein stability index recorded for `C21V` is above or exactly 3.
output: criterion met

input: Does protein stability index meet or surpass 3 for `T14C` ?
output: criterion not met

input: Check the entry `V15A` : does protein stability index equal or exceed 3?
output: criterion not met

input: Please check the record `I24R` and state if its protein stability index is at or above 3.
output: criterion not met

input: Is the recorded value of protein stability index equal to or greater than 3 for this variant? `V23I`
output: criterion not met

input: Is it the case that `L5H` has protein stability index reaching or exceeding 3?
output: criterion not met

input: protein stability index >= 3 for `T2W` ?
output: criterion not met

input: Can `I24N` be said to have protein stability index at or above 3?
output: criterion not met

input: Textbook exercise: given the entry `I16T` , state whether its protein stability index is greater than or equal to 3.
output: criterion met

input: Is it the case that `V18M` has protein stability index reaching or exceeding 3?
output: criterion met

input: Identify whether the reported protein stability index of the following variant is 3 or greater: `T14A`
output: criterion not met

input: Exam item: decide whether the reported protein stability index for `V15Q` is at least 3.
output: criterion not met

input: Is protein stability index at least 3? Consider `I16A`
output: criterion not met

input: Test whether the variant `L4D` records protein stability index of 3 or higher.
output: criterion not met

input: Is protein stability index for `S20M` at or above 3?
output: criterion not met

input: Assess whether reported protein stability index for `K1N` sits at 3 or higher.
output: criterion not met

Reference source for all entries: the supplement of paper PMC10567573
